# assayExplanation: Determination of DHEA solubility by light scattering
# Type: physicochemical
# testSettings: potassium phosphate buffer, pH 7, aqueous buffer
quantity: solubility (µM)

- molecule: "C[C@]12CC[C@H](O)CC1=CC[C@@H]1[C@@H]2CC[C@]2(C)C(=O)CC[C@@H]12 [DHEA]"
  valueObserved: 80

---

# experimentalTarget: hSULT2A1-DHEA complex (Homo sapiens)
# assayExplanation: Ligand binding to the hSULT2A1-DHEA complex by intrinsic tryptophan fluorescence
# testSettings: read-out: Kd2(app); enzyme pretreated with 80 μM (0.08 mM) DHEA
quantity: Kd (µM)

- compound: "Nc1ncnc2c1ncn2[C@@H]1O[C@H](COP(=O)(O)O)[C@@H](OP(=O)(O)O)[C@H]1O [PAP, adenosine 3′,5′-diphosphate]"
  valueObserved: 243

---

# experimentalTarget: hSULT2A1-PAP complex (Homo sapiens, UniProt Q06520)
# assayExplanation: Ligand binding to the hSULT2A1-PAP complex by intrinsic tryptophan fluorescence
# testSettings: read-out: Kd2(app); in the presence of 100 μM (0.1 mM) PAP
pKd: −log10 of the molar value. Where a name gives a salt, the structure may show the parent alone.
List of pKd values.
quantity: pKd

- compound: "C[C@]12CC[C@H](OS(=O)(=O)O)CC1=CC[C@@H]1[C@@H]2CC[C@]2(C)C(=O)CC[C@@H]12 [DHEAS, dehydroepiandrosterone sulfate]"
  valueObserved: 5.48
- compound: "C[C@]12CC[C@H](O)CC1=CC[C@@H]1[C@@H]2CC[C@]2(C)C(=O)CC[C@@H]12 [DHEA]"
  valueObserved: 4.66

---

# experimentalTarget: hSULT2A1 (Homo sapiens, UniProt Q06520)
# Sequence (Q06520 1-285): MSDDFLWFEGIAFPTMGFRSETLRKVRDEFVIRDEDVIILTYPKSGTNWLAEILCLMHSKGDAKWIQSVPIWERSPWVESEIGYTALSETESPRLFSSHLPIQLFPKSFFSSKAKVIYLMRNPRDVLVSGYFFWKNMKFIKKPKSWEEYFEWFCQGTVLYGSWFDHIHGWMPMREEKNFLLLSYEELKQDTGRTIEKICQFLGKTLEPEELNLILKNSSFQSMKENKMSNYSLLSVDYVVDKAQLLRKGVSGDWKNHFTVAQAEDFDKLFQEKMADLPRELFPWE
# assayExplanation: Ligand binding to ligand-free hSULT2A1 by intrinsic tryptophan fluorescence
# testSettings: read-out: dissociation constant (hyperbolic single site); ligand-free enzyme, pH 7.0, 37 °C
pKd: −log10 of the molar value. Counter-ions that a name gives are not always drawn.
quantity: pKd

- molecule: "C[C@]12CC[C@H](OS(=O)(=O)O)CC1=CC[C@@H]1[C@@H]2CC[C@]2(C)C(=O)CC[C@@H]12 [DHEAS, dehydroepiandrosterone sulfate]"
  experimentalTarget: "hSULT2A1 (Homo sapiens, UniProt Q06520)"
  valueObserved: 5.14

---

# experimentalTarget: hSULT2A1-PAP complex (Homo sapiens)
# assayExplanation: Ligand binding to the hSULT2A1-PAP complex by intrinsic tryptophan fluorescence
# testSettings: read-out: Kd(app) (hyperbolic single site); in the presence of 100 μM PAP
Structures can show the parent of a compound that is named as a salt.

- molecule: "C[C@]12CC[C@H](OS(=O)(=O)O)CC1=CC[C@@H]1[C@@H]2CC[C@]2(C)C(=O)CC[C@@H]12 [DHEAS, dehydroepiandrosterone sulfate]"
  Kd (µM): 3.3

Data origin: paper PMC3058861
